The following molecules are listed with their measured speed of sound values.
study_conditions: 333.15 K; 102 kPa; Liquid; Frequency=3 MHz; Single path-length method
measurement_kind: speed of sound (m/s)

[[record]]
molecule = "CCCC1CCCCC1 [1-cyclohexylpropane]"
assay_value = 1147.7

[[record]]
molecule = "CCCCCCCCCCCC [dodecane]"
assay_value = 1147.8

[[record]]
molecule = "CCCCCCCCCCC1CCCCC1 [decylcyclohexane]"
assay_value = 1262.7

[[record]]
molecule = "CCCCCCCCC1CCCCC1 [octylcyclohexane]"
assay_value = 1240.3

[[record]]
molecule = "CCCCCCC1CCCCC1 [hexylcyclohexane]"
assay_value = 1211

[[record]]
molecule = "CCCCCCCC1CCCCC1 [heptylcyclohexane]"
assay_value = 1226.7

[[record]]
molecule = "CCCCCCCCCCCCC1CCCCC1 [dodecylcyclohexane]"
assay_value = 1281.4

[[record]]
molecule = "CCCCCC1CCCCC1 [pentylcyclohexane]"
assay_value = 1193.5

